Target: Muscarinic acetylcholine receptor M2 (Homo sapiens, UniProt P08172)
Sequence (P08172 whole entry): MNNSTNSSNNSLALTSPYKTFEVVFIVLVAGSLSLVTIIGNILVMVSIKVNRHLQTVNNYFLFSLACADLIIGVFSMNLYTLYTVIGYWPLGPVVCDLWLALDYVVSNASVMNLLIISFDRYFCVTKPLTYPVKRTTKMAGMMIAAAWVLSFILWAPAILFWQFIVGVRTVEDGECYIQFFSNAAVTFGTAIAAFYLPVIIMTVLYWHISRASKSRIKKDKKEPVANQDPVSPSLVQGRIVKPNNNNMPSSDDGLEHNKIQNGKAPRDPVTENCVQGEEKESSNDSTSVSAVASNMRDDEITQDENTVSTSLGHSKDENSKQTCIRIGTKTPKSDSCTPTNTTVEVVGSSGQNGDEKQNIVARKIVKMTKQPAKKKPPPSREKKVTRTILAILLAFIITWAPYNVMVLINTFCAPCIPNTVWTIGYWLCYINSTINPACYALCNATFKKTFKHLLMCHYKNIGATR
Test: Antagonist activity at human muscarinic M2 receptor expressed in HEK293 cells co-expressing HA-Galphaq/i5 assessed as inhibition of carbachol-induced IP1 accumulation at 22 degree C pre-incubated for 180 mins followed by carbachol addition and further incubated at 37 degree C for 90 mins by HTRF assay
Type: functional, cell-based
pIC50: −log10 of the molar value.
measurement-name: pIC50

{"chemical-string": "CC1(C)C(/C=C/C=C/C=C2/N(CCCCCC(=O)NCCNC(=O)CCc3cn(CCCCC4CCN(CC(=O)N5c6ccccc6NC(=O)c6ccccc65)CC4)cn3)c3ccc(S(=O)(=O)O)cc3C2(C)C)=[N+](CCCCS(=O)(=O)[O-])c2ccccc21.O=C(O)C(F)(F)F", "pIC50": 7.24}
{"chemical-string": "CC1(C)C(/C=C/C=C/C=C2/N(CCCCCC(=O)NCCN3CCN(CCCCC4CCN(CC(=O)N5c6ccccc6NC(=O)c6ccccc65)CC4)CC3)c3ccccc3C2(C)C)=[N+](CCCCS(=O)(=O)[O-])c2ccccc21", "pIC50": 7.22}
{"chemical-string": "CC1(C)C(/C=C/C=C/C=C2/N(CCCCCC(=O)NCc3cc(C(=O)NCCNC(=O)CCc4cn(CCCCC5CCN(CC(=O)N6c7ccccc7NC(=O)c7ccccc76)CC5)cn4)cc(C(=O)NCCNC(=O)CCc4cn(CCCCC5CCN(CC(=O)N6c7ccccc7NC(=O)c7ccccc76)CC5)cn4)c3)c3ccc(S(=O)(=O)O)cc3C2(C)C)=[N+](CCCCS(=O)(=O)[O-])c2ccccc21.O=C(O)C(F)(F)F.O=C(O)C(F)(F)F.O=C(O)C(F)(F)F", "pIC50": 7.76}
{"chemical-string": "CC1(C)C(/C=C/C=C/C=C2/N(CCCCCC(=O)NCCN3CCN(CCCCC4CCN(CC(=O)N5c6ccccc6NC(=O)c6ccccc65)CC4)CC3)c3ccc(S(=O)(=O)O)cc3C2(C)C)=[N+](CCCCS(=O)(=O)[O-])c2ccccc21.O=C(O)C(F)(F)F.O=C(O)C(F)(F)F", "pIC50": 7.41}

Source listed as ChEMBL document CHEMBL4602702.
